target desc: Type III NOS (BAE homogenate preparation) (Bos taurus)
Construct: partially purified isozyme III from bovine aortic endothelial cells (BAE cells); endogenous in cells
test details: [3H]-Arginine to [3H]-Citrulline conversion, BAE homogenate preparation (Type III NOS)
condition parameters: read-out: Inhibition of [3H]-Citrulline Formation IC50, BAE Preparation
From the text: The enzyme NO synthase produces EDRF/NO and citrulline from L-arginine (Bredt and Snyder, Proc. Nat'l. Acad. Sci. USA, 1989, 87: 682-5). The enzymatic generation of EDRF/NO is monitored by measuring the conversion of [^3 H]-L-arginine to [^3 H]-L-citrulline. An inhibitor of this specific enzymatic reaction lowers the conversion rate and, thus, the amount of [^3 H]-L-citrulline produced. Likewise, a compound acting as a substrate would compete with L-arginine and thereby lower the conversion rate. […]
endpoint: IC50

Consider the following illustrative entries.
| query smiles | target desc | IC50 |
| --- | --- | --- |
| CNC(=N)NC/C(C)=C/[C@H](N)CO | Type III NOS (BAE homogenate preparation) (Bos taurus) | > 100 µM |
| N=C(N)NC/C(=C/[C@H](N)CO)Cc1ccccc1 | Type III NOS (BAE homogenate preparation) (Bos taurus) | > 100 µM |
| N=C(N)NC/C=C/[C@H](N)CO | Type III NOS (BAE homogenate preparation) (Bos taurus) | > 100 µM |

Query: Recorded IC50 for C/C(=C\[C@H](N)CO)CNC(=N)N[N+](=O)[O-] with Type III NOS (BAE homogenate preparation) (Bos taurus), please?
Reply: 100 µM

###

target desc: Type I NOS (rat brain cytosol) (Rattus norvegicus)
Construct: type I isozyme from rat brain cerebellum; from tissue; host or cells: rat brain (cytosol; cerebellum, phosphocellulose-purified)
test details: [3H]-Arginine to [3H]-Citrulline conversion, rat brain cytosol (Type I NOS)
Type: biochemical
condition parameters: 100 μM, read-out: Percent Inhibition of [3H]-Citrulline Formation, Rat Brain Cytosol
endpoint: inhibition at 100 µM (%)
A number alone suffices; assume %.

Illustrative cases are given below, each with its answer.
| query smiles | target desc | inhibition at 100 µM [%] |
| --- | --- | --- |
| CNC(=N)NC/C=C/[C@@H]1COC(C)(C)N1C(=O)OC(C)(C)C | Type I NOS (rat brain cytosol) (Rattus norvegicus) | 17 |
| C/C(=C\[C@H](N)CO)CNC(=N)N[N+](=O)[O-] | Type I NOS (rat brain cytosol) (Rattus norvegicus) | 90 |
| CNC(=N)NC/C=C/[C@@H](N)CO | Type I NOS (rat brain cytosol) (Rattus norvegicus) | 77 |
| C/C(=C\[C@H]1COC(C)(C)N1C(=O)OC(C)(C)C)CNC(=N)N | Type I NOS (rat brain cytosol) (Rattus norvegicus) | 27 |
| N=C(NO)NC/C=C/[C@H](N)CO | Type I NOS (rat brain cytosol) (Rattus norvegicus) | 23 |
| CNC(=N)NC/C=C/[C@H](N)CO | Type I NOS (rat brain cytosol) (Rattus norvegicus) | 74 |

Query: Tell me the measured inhibition at 100 µM of N=C(N)NC/C(=C/[C@H](N)CO)Cc1ccccc1 , please.
Reply: 80

Query: Next entry: CCNC(=N)NC/C=C/[C@H]1COC(C)(C)N1C(=O)OC(C)(C)C
Reply: 20

Query: Note, next up: CC(C)(C)OC(=O)N1[C@H](/C=C/CNC(=N)N)COC1(C)C
Reply: 70

Query: And what about the molecule CC(C)(C)OC(=O)N1[C@@H](/C=C(/CNC(=N)N)Cc2ccccc2)COC1(C)C ?
Reply: 35

Query: Likewise for CNC(=N)NC/C=C/[C@H]1COC(C)(C)N1C(=O)OC(C)(C)C ?
Reply: 51

Query: And CC(C)(C)OC(=O)N1[C@@H](/C=C/CNC(=N)N)COC1(C)C ?
Reply: 35
